# Assay procedure: LAP4-GFP expression modulators in yeast, confirmation, cell-based, cherry picks, flow cytometry, mother/daughter gates (AID 2271);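 note: ratio of sample to DMSO plate mean so 100% equals DMSO level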
# Assay context: S. cerevisiae LAP4-GFP strain, 3 h, measured here: mother cell gate response, at 10 µM, stronger effect = higher value, 100 means same as DMSO control
Outcome measure: GFP response relative to DMSO (%)

compound=O=C(OCc1ccco1)c1ccc(S(=O)(=O)N2CCCCC2)cc1 outcome_measure="GFP response relative to DMSO" readout_unit=% quantitative_readout=98.4
compound="CCOc1ccc(C(C)=O)cc1N1C(=O)C2C3C=CC(O3)C2C1=O (stereo not drawn)" outcome_measure="GFP response relative to DMSO" readout_unit=% quantitative_readout=136
compound="CC(=O)Oc1ccc(N2C(=O)C3C4C=CC(CO)(O4)C3C2=O)cc1 (stereo not drawn)" outcome_measure="GFP response relative to DMSO" readout_unit=% quantitative_readout=120
compound=O=c1[nH]c2c(=O)[nH]cnc2nc1-c1ccccc1 outcome_measure="GFP response relative to DMSO" readout_unit=% quantitative_readout=88.8
compound=Cc1nnc(NC(=O)c2ccc(S(=O)(=O)N3CCCCCC3)cc2)o1 outcome_measure="GFP response relative to DMSO" readout_unit=% quantitative_readout=97.3
compound=Cc1ccccc1NC(=O)c1ccccc1O outcome_measure="GFP response relative to DMSO" readout_unit=% quantitative_readout=108
compound=COc1ccc(CN2CCN(c3ncccn3)CC2)c(C)c1C outcome_measure="GFP response relative to DMSO" readout_unit=% quantitative_readout=100
compound=O=C(COc1c(Br)cc(Br)c2cccnc12)N1CCc2ccccc2C1 outcome_measure="GFP response relative to DMSO" readout_unit=% quantitative_readout=144
compound=COC(=O)c1ccc(Cn2cc(/C=C\[N+](=O)[O-])c3ccccc32)o1 outcome_measure="GFP response relative to DMSO" readout_unit=% quantitative_readout=127
compound=NC(=O)C1CCN(C(=S)NCCc2ccccc2)CC1 outcome_measure="GFP response relative to DMSO" readout_unit=% quantitative_readout=93.4
compound=Oc1c(Br)cc(Br)cc1C=Nc1cccc2ncccc12 outcome_measure="GFP response relative to DMSO" readout_unit=% quantitative_readout=126
compound=COc1ccc(/C=N/Nc2nnc(C)n2N)cc1OC(C)=O outcome_measure="GFP response relative to DMSO" readout_unit=% quantitative_readout=92.6
compound=Cc1cccc(Sc2ccc([N+](=O)[O-])cc2[N+](=O)[O-])n1 outcome_measure="GFP response relative to DMSO" readout_unit=% quantitative_readout=98.3
compound=O=C(COc1ccc(OCc2ccccc2)cc1)NN=C1CCCC1 outcome_measure="GFP response relative to DMSO" readout_unit=% quantitative_readout=109
compound=O=C(NCc1ccncc1)C12CC3CC(CC(Cl)(C3)C1)C2 outcome_measure="GFP response relative to DMSO" readout_unit=% quantitative_readout=96.2
compound=COc1ccc(N2C(=O)C(Cl)=C(N(CCO)Cc3ccccc3)C2=O)cc1 outcome_measure="GFP response relative to DMSO" readout_unit=% quantitative_readout=99.4
compound=O=[N+]([O-])c1ccc(Sc2nc3ccccc3o2)c([N+](=O)[O-])c1 outcome_measure="GFP response relative to DMSO" readout_unit=% quantitative_readout=158
compound=O=C(COC(=O)c1n[nH]c2ccccc12)c1cccc(Br)c1 outcome_measure="GFP response relative to DMSO" readout_unit=% quantitative_readout=99.5
